Reported pIC50 values follow for various molecules
- systemUnderTest: hNav1.7 (Homo sapiens (Human), UniProt Q15858)
- Sequence (Q15858 other isoform, or with tags, fused parts or gaps): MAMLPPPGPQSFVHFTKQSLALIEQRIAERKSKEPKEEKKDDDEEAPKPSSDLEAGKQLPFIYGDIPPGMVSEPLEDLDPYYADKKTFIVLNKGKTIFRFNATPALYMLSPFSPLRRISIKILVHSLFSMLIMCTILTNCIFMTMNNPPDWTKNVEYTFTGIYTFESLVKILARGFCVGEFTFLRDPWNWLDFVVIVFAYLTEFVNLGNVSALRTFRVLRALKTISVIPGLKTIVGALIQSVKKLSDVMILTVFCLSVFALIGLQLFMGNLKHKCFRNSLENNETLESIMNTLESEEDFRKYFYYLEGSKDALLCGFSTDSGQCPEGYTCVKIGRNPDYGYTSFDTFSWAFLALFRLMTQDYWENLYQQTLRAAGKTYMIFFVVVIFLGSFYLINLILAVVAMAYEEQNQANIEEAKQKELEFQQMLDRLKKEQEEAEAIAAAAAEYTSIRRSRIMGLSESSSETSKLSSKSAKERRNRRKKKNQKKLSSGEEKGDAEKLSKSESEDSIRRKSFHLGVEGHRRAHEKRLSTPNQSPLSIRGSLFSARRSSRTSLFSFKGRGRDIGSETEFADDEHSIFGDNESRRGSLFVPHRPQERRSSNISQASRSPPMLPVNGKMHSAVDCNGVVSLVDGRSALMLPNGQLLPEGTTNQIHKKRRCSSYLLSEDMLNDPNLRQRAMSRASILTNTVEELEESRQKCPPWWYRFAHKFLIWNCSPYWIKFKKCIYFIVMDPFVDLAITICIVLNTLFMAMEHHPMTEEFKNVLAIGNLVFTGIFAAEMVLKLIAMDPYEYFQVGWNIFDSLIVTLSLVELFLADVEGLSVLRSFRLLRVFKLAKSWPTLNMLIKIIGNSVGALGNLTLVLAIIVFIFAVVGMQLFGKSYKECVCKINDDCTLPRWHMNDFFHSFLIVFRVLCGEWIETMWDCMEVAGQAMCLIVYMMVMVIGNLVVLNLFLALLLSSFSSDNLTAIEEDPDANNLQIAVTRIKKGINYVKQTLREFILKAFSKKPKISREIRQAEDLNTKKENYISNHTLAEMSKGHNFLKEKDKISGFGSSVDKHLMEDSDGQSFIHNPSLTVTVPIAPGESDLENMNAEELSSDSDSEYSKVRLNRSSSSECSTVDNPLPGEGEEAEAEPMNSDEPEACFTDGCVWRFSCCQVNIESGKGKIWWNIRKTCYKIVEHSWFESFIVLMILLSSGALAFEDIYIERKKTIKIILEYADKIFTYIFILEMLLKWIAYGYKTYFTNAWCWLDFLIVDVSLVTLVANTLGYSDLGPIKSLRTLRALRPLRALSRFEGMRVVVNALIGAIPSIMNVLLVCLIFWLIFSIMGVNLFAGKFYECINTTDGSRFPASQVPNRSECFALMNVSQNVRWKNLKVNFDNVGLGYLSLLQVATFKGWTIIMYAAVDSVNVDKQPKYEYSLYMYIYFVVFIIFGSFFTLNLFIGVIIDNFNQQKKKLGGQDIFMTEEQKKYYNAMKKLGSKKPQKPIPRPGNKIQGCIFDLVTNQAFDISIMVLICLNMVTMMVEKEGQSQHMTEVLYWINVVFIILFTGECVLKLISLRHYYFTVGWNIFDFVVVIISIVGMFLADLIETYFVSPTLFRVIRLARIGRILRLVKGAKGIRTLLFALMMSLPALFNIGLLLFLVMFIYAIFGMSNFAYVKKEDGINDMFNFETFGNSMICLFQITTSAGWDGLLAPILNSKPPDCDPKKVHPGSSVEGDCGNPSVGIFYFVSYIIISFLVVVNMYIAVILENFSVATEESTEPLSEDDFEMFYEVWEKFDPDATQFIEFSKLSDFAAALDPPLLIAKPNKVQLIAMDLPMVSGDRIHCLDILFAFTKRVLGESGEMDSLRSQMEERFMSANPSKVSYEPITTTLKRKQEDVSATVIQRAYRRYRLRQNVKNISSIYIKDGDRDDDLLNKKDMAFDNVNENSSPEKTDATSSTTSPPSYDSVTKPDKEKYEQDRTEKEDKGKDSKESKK
- assayProcedure: Patch voltage clamp electrophysiology (EP), Syncropatch 384PE, CHO cells stably expressing Nav1.7
- Format: cell-based
- recordedConditions: holding potential −50 mV, 7.5 min compound incubation, read-out: EP_SP hNav1.7 EVO IC50
pIC50: −log10 of the molar value. Structures can show the parent of a compound that is named as a salt.
propertyName: pIC50

1. Cc1nc(O[C@H]2CC[C@H](c3cccc(C(F)(F)F)c3F)C[C@@H]2N(C)C)ccc1S(=O)(=O)Nc1ccncn1 [Example 46, formate] : 9.04
2. O=S(=O)(Nc1ccncn1)c1ccc(O[C@H]2CC[C@H](c3cccc(C(F)(F)F)c3)C[C@@H]2N2CCCC2)nc1 [Example 17, formate] : 9.22
3. CN(C)[C@H]1C[C@@H](c2cccc(C(F)(F)F)c2)CC[C@@H]1Oc1ncc(S(=O)(=O)Nc2ccncn2)cc1Br [Example 20, formate] : 9.05
4. Cc1nc(O[C@H]2CC[C@H](c3ccc(F)c(C(F)(F)F)c3)C[C@@H]2N(C)C)ccc1S(=O)(=O)Nc1ccncn1 [Example 45, formate] : 9.33
5. CN(C)[C@H]1C[C@@H](c2cccc(C(F)(F)F)c2)CC[C@@H]1Nc1ccc(S(=O)(=O)Nc2ccncn2)nc1 : 8.08

---

- systemUnderTest: hNav1.7 (Homo sapiens (Human), UniProt Q15858)
- assayProcedure: Patch voltage clamp electrophysiology (EP), Syncropatch 384PE, CHO cells stably expressing Nav1.7
- Format: cell-based
- recordedConditions: holding potential −50 mV, 7.5 min compound incubation, read-out: EP_SP hNav1.7 EVO IC50
Counter-ions that a name gives are not always drawn.
propertyName: log10 of IC50 (log10 of the value in nM)

1) Cc1ccc(C(F)(F)F)cc1[C@H]1CC[C@H](Oc2ccc(S(=O)(=O)Nc3ccncn3)c(C)n2)[C@@H](N(C)C)C1 [Example 54] : -0.39
2) Cc1nc(O[C@H]2CC[C@H](c3cccc(OC(F)(F)F)c3)C[C@@H]2N(C)C)ccc1S(=O)(=O)Nc1ccncn1 [Example 28] : -0.18
3) CN(C)[C@H]1C[C@@H](c2cccc(OC(F)(F)F)c2)CC[C@@H]1Oc1ncc(S(=O)(=O)Nc2ccncn2)cc1Cl [Example 13] : 0.19
4) Cc1nc(O[C@H]2CC[C@H](c3ccc(Cl)c(C(F)(F)F)n3)C[C@@H]2N(C)C)ccc1S(=O)(=O)Nc1ccncn1 [Example 62] : 0.18
5) Cc1nc(O[C@H]2CC[C@H](c3cc(Cl)cc(C(F)(F)F)c3)C[C@@H]2N(C)C)ccc1S(=O)(=O)Nc1ccncn1 [Example 49] : -0.73
6) Cc1nc(O[C@H]2CC[C@H](c3cccc(Cl)c3)C[C@@H]2N(C)C)ccc1S(=O)(=O)Nc1ccncn1 [Example 57] : -0.04
7) Cc1cc(S(=O)(=O)Nc2ccncn2)cnc1O[C@H]1CC[C@H](c2cccc(C(F)(F)F)c2)C[C@@H]1N(C)C [Example 15] : 0.63
8) COc1cc(S(=O)(=O)Nc2ccncn2)cnc1O[C@H]1CC[C@H](c2cccc(C(F)(F)F)c2)C[C@@H]1N(C)C [Example 61, formate] : 1.03
9) CN(C)[C@H]1C[C@@H](c2cccc(C(F)(F)F)c2)CC[C@@H]1Oc1ncc(S(=O)(=O)Nc2ccncn2)cc1C1CC1 [Example 7, formate] : 0.06
10) Cc1nc(O[C@H]2CC[C@H](c3cccc(C(F)(F)F)c3)C[C@@H]2N2CCOCC2)ccc1S(=O)(=O)Nc1ccncn1 [Example 55] : -0.28
11) CCN(CC)[C@H]1C[C@@H](c2cccc(C(F)(F)F)c2)CC[C@@H]1Oc1ccc(S(=O)(=O)Nc2ccncn2)c(C)n1 [Example 47] : 0.24
12) CN(C)[C@H]1C[C@@H](c2cccc(C(F)(F)F)c2)CC[C@@H]1Oc1ncc(S(=O)(=O)Nc2ccncn2)cc1C(F)(F)F [Example 14] : 0.71
13) Cc1nc(O[C@H]2CC[C@H](c3cccc(C(F)(F)F)c3C)C[C@@H]2N(C)C)ccc1S(=O)(=O)Nc1ccncn1 [Example 60] : -0.04
14) Cc1nc(O[C@H]2CC[C@H](c3cc(C(F)(F)F)ccc3Cl)C[C@@H]2N(C)C)ccc1S(=O)(=O)Nc1ccncn1 [Example 38] : -0.39
15) CCN(C)[C@H]1C[C@@H](c2cccc(C(F)(F)F)c2)CC[C@@H]1Oc1ccc(S(=O)(=O)Nc2ccncn2)c(C)n1 [Example 48] : -0.57
16) CN(C)[C@H]1C[C@@H](c2cccc(C(F)(F)F)c2)CC[C@@H]1Oc1ccc(S(=O)(=O)Nc2ccncn2)cn1 [Example 1] : -0.05
17) Cc1nc(O[C@H]2CC[C@H](c3cccc(C(F)(F)F)n3)C[C@@H]2N(C)C)ccc1S(=O)(=O)Nc1ccncn1 [Example 51] : 0.66
18) CN(C)[C@H]1C[C@@H](c2ccc(Cl)c(C(F)(F)F)c2)CC[C@@H]1Oc1ccc(S(=O)(=O)Nc2ccncn2)cn1 [Example 12, formate] : -0.18
19) Cc1nc(O[C@H]2CC[C@H](c3cccc(OC(F)(F)F)c3)C[C@@H]2N2CCCC2)ccc1S(=O)(=O)Nc1ccncn1 [Example 30] : 0.03
20) CN(C)[C@H]1C[C@@H](c2cc(C(F)(F)F)ccc2F)CC[C@@H]1Oc1ccc(S(=O)(=O)Nc2ccncn2)c(Cl)n1 [Example 44, formate] : 0.26
21) Cc1nc(O[C@H]2CC[C@H](c3cccc(C(F)(F)F)c3)C[C@@H]2N(C)C2CCC2)ccc1S(=O)(=O)Nc1ccncn1 [Example 35] : -0.22
22) CN(C)[C@H]1C[C@@H](c2cccc(C(F)(F)F)c2)CC[C@@H]1Oc1ccc(S(=O)(=O)Nc2ccncn2)c(Cl)n1 [Example 22] : 0.34
23) Cc1nc(O[C@H]2CC[C@H](c3cccc(C(F)(F)F)c3)C[C@@H]2N2CCCC2)ccc1S(=O)(=O)Nc1ccncn1 [Example 29] : 0.75
24) O=S(=O)(Nc1ccncn1)c1ccc(N[C@H]2CC[C@H](c3cccc(C(F)(F)F)c3)C[C@@H]2N2CCCC2)nc1 [Example 16, formate] : 0.45
25) Cc1nc(O[C@H]2CC[C@H](c3cccc(OC(F)F)c3)C[C@@H]2N(C)C)ccc1S(=O)(=O)Nc1ccncn1 [Example 52] : 0.26
26) CN(C)[C@H]1C[C@@H](c2cccc(C(F)(F)F)c2)CC[C@@H]1Oc1ncc(S(=O)(=O)Nc2ccncn2)cc1F [Example 21] : -0.37

---

- systemUnderTest: UniProtKB Q15858
- assayProcedure: Patch voltage clamp electrophysiology (EP), Syncropatch 384PE, CHO cells stably expressing Nav1.7
- Format: cell-based
- recordedConditions: holding potential −50 mV, 7.5 min compound incubation, read-out: EP_SP hNav1.7 EVO IC50
Counter-ions that a name gives are not always drawn.
Reported IC50 values follow for various molecules
propertyName: IC50 (nM)

1. CCc1cc(S(=O)(=O)Nc2ccncn2)cnc1O[C@H]1CC[C@H](c2cccc(C(F)(F)F)c2)C[C@@H]1N(C)C [Example 24, formate] : 8.33
2. Cc1nc(O[C@H]2CC[C@H](c3cc(F)cc(C(F)(F)F)c3)C[C@@H]2N(C)C)ccc1S(=O)(=O)Nc1ccncn1 : 0.646
3. CN(C)[C@H]1C[C@@H](c2ccc(Cl)c(C(F)(F)F)c2)CC[C@@H]1Nc1ccc(S(=O)(=O)Nc2ccncn2)cn1 [Example 11, formate] : 1.07
4. CCc1nc(O[C@H]2CC[C@H](c3cccc(C(F)(F)F)c3)C[C@@H]2N(C)C)ccc1S(=O)(=O)Nc1ccncn1 : 16.3
5. O=S(=O)(Nc1ccncn1)c1cnc(O[C@H]2CC[C@H](c3cccc(C(F)(F)F)c3)C[C@@H]2N2CCCCC2)c(Cl)c1 : 0.281
6. Cc1nc(O[C@H]2CC[C@H](c3cccc(C(F)(F)F)c3)C[C@@H]2N(C)C)ccc1S(=O)(=O)Nc1ccncn1 [Example 23, formate] : 0.765
7. Cc1nc(O[C@H]2CC[C@H](c3cc(Cl)ccc3Cl)C[C@@H]2N(C)C)ccc1S(=O)(=O)Nc1ccncn1 [Example 39, formate] : 0.645
8. Cc1cc([C@H]2CC[C@H](Oc3ccc(S(=O)(=O)Nc4ccncn4)c(C)n3)[C@@H](N(C)C)C2)cc(C(F)(F)F)c1 : 0.351
9. Cc1nc(O[C@H]2CC[C@H](c3cccc(CC(F)(F)F)c3)C[C@@H]2N(C)C)ccc1S(=O)(=O)Nc1ccncn1 : 0.942
10. CN(C)[C@H]1C[C@@H](c2cccc(C(F)(F)F)c2)CC[C@@H]1Nc1ccc(S(=O)(=O)Nc2ccncn2)cn1 (racemic) : 0.427
11. CN(C)[C@H]1C[C@@H](c2cccc(C(F)(F)F)c2)CC[C@@H]1Oc1ncc(S(=O)(=O)Nc2ccncn2)cc1C#N [Example 6, formate] : 3.51
12. CN(C)[C@H]1C[C@@H](c2cccc(C(F)(F)F)c2)CC[C@@H]1Oc1ncc(S(=O)(=O)Nc2ccncn2)cc1Cl : 2.21
13. CN(C)[C@H]1C[C@@H](c2cccc(C(F)(F)F)c2)CC[C@@H]1Oc1cc(Cl)c(S(=O)(=O)Nc2ccncn2)cn1 : 10
14. O=S(=O)(Nc1ccncn1)c1cnc(O[C@H]2CC[C@H](c3cccc(C(F)(F)F)c3)C[C@@H]2N2CCCC2)c(Cl)c1 : 0.388
15. Cc1ccc([C@H]2CC[C@H](Oc3ccc(S(=O)(=O)Nc4ccncn4)c(C)n3)[C@@H](N(C)C)C2)cc1C(F)(F)F [Example 56, formate] : 0.13
16. O=S(=O)(Nc1ccncn1)c1ccc(O[C@H]2CC[C@H](c3cccc(OC(F)(F)F)c3)C[C@@H]2N2CCCC2)nc1 : 5.62
17. CN(C)[C@H]1C[C@@H](c2cccc(C(F)(F)F)c2)CC[C@@H]1Oc1ccc(S(=O)(=O)Nc2ccncn2)c(C2CC2)n1 : 154
18. CN(C)[C@H]1C[C@@H](c2cccc(SC(F)(F)F)c2)CC[C@@H]1Oc1ccc(S(=O)(=O)Nc2ccncn2)cn1 : 1.05
19. Cc1cc(O[C@H]2CC[C@H](c3cccc(C(F)(F)F)c3)C[C@@H]2N(C)C)ncc1S(=O)(=O)Nc1ccncn1 : 37.1
20. O=S(=O)(Nc1ccncn1)c1ccc(O[C@H]2CC[C@H](c3cccc(C(F)(F)F)c3)C[C@@H]2N2CCCCC2)nc1 : 1.16
21. O=S(=O)(Nc1ccncn1)c1cnc(O[C@H]2CC[C@H](c3cccc(C(F)(F)F)n3)C[C@@H]2N2CCCC2)c(Cl)c1 : 3.86
22. Cc1nc(O[C@H]2CC[C@H](c3cc(C(F)(F)F)ccc3F)C[C@@H]2N(C)C)ccc1S(=O)(=O)Nc1ccncn1 [Example 43, formate] : 0.687
23. CN(C)[C@H]1C[C@@H](c2cccc(OC(F)(F)F)c2)CC[C@@H]1Oc1ccc(S(=O)(=O)Nc2ccncn2)cn1 [Example 25, formate] : 3.51
24. Cc1nc(O[C@H]2CC[C@H](c3ccc(Cl)c(C(F)(F)F)c3)C[C@@H]2N(C)C)ccc1S(=O)(=O)Nc1ccncn1 : 0.247
25. CN(C)[C@H]1C[C@@H](c2cccc(C(F)(F)F)c2)CC[C@@H]1Nc1ncc(S(=O)(=O)Nc2ccncn2)cc1Cl : 0.765
26. Cc1nc(O[C@H]2CC[C@H](c3cccc(C(F)(F)F)c3)C[C@@H]2N(C)C)c(F)cc1S(=O)(=O)Nc1ccncn1 [Example 53, formate] : 0.989
